compound: COC(=O)c1cc(NCc2c(F)c(F)c(C(F)(F)F)c(F)c2F)ccc1O [Synthesis Example 13]
melting point: 127 °C
--
compound: COc1ccc(NCc2c(F)c(F)c(C(F)(F)F)c(F)c2F)cc1C(=O)O [Synthesis Example 7]
melting point: 94 °C
--
compound: O=C(O)c1cc(NCc2c(F)c(F)c(C(F)(F)F)c(F)c2F)ccc1Br [Synthesis Example 4]
melting point: 70 °C
--
compound: O=C(O)c1cc(NCc2c(F)c(F)c(C(F)(F)F)c(F)c2F)ccc1[N+](=O)[O-] [Synthesis Example 2]
melting point: 121 °C
--
compound: Cc1c(F)c(F)c(CNc2ccc(O)c(C(=O)O)c2)c(F)c1F [Synthesis Example 5]
melting point: 212 °C
--
compound: Cc1ccc(NCc2c(F)c(F)c(C(F)(F)F)c(F)c2F)cc1C(=O)O [Synthesis Example 6]
melting point: 84 °C
--
compound: O=C(O)c1cc(NCc2c(F)c(F)c(C(F)(F)F)c(F)c2F)ccc1OC(F)(F)F [Synthesis Example 8]
melting point: 38 °C
--
compound: O=C(O)c1cc(NCc2c(F)c(F)c(C(F)(F)F)c(F)c2F)ccc1Cl [Synthesis Example 3]
melting point: 58 °C
--
compound: O=[N+]([O-])c1cc(NCc2c(F)c(F)c(C(F)(F)F)c(F)c2F)ccc1O [Synthesis Example 9]
melting point: 126 to 128 °C

----------
Tested on: NMDA receptor
Assay: Whole cell recording of NMDA-induced inward currents in cultured cortical neurons
Type: cell-based, mouse
Settings: 300 μM NMDA; neurons held at −70 mV; bath application; n=7-15 neurons/condition; read-out: IC50 for depression of NMDA-evoked currents

compound: O=C(O)c1cc(NCc2c(F)c(F)c(C(F)(F)F)c(F)c2F)ccc1O [2-Hydroxy-TTBA]
result-units: µM
IC50: 30.6
